compounds and their reported pIC50
Test system: MDA-MB-231 (breast cancer)
Experiment: MTT assay, MDA-MB-231 cells
Assay type: cell-based, human
Conditions: Homo sapiens, MDA-MB-231; MTT, 72 h, MDA-MB231; read-out: IC50 MDA
Excerpt: The human cell lines, such as A549 (lung cancer), MDA-MB-231 (breast cancer), MiaPaca-2 (pancreatic cancer), PC3 (metastatic prostate cancer), HCT-116 (colon carcinoma), and HaCaT (immortalized keratinocytes), were sourced from the American Type Culture Collection (ATCC) in Rockville, USA. […] Cell absorbance results were incorporated into the formula for calculating the relative MTT level (%), enabling the assessment of cell viability following exposure to the test compounds. […]
The quantity pIC50 is defined as the negative base-10 logarithm of the molar concentration.

Please report the recorded pIC50 for COc1cccc2c1C(=O)c1c(O)c3c(c(O)c1C2=O)C[C@@](O)(C(=O)CO)C[C@@H]3O[C@H]1C[C@H](N)[C@H](O)[C@H](C)O1 [DX, doxorubicin, reference compound] .
6.10

So what's the measured pIC50 for this one? C#CCN1c2cc(Cl)ccc2Sc2cc3ccccc3nc21
4.02

Item under review: CN(C)CCCN1c2cc(Cl)ccc2Sc2cc3ccccc3nc21 . Reported pIC50?
4.28

Dear colleague, I am looking for the recorded pIC50 of the following compound: CN1CCCCC1CCN1c2cc(Cl)ccc2Sc2cc3ccccc3nc21 (centres unmarked)
4.78

---

Catalogue of MIC values
test system: E. coli ATCC 25922; experiment: MIC broth microdilution; format: cell-based; conditions: Escherichia coli, ATCC25922; 19 h, 35 °C; read-out: MIC E. coli ATCC 25922

CS(=O)(=O)NCCCN1c2cc(Cl)ccc2Sc2cc3ccccc3nc21 :: > 256 µg/mL
CN1CCCCC1CCN1c2cc(Cl)ccc2Sc2cc3ccccc3nc21 (stereo not drawn) :: > 256 µg/mL
CCN(CC)CCN1c2cc(Cl)ccc2Sc2cc3ccccc3nc21 :: > 256 µg/mL
CS(=O)(=O)NCCCCN1c2cc(Cl)ccc2Sc2cc3ccccc3nc21 :: > 256 µg/mL
C#CCN1c2cc(Cl)ccc2Sc2cc3ccccc3nc21 :: > 256 µg/mL
CN(C)CCCN1c2cc(Cl)ccc2Sc2cc3ccccc3nc21 :: 64 µg/mL

Report MIC for Clc1ccc2c(c1)N(CCN1CCCCC1)c1nc3ccccc3cc1S2 tested on E. coli ATCC 25922.
> 256 µg/mL

Write down the reported MIC of N#Cc1ccc(Cn2cc(CN3c4cc(Cl)ccc4Sc4cc5ccccc5nc43)nn2)cc1 , test system: E. coli ATCC 25922.
> 256 µg/mL

// map Clc1ccc2c(c1)Nc1nc3ccccc3cc1S2 to recorded MIC (system: E. coli ATCC 25922)
256 µg/mL

---

test system: HCT116 cells; test: Cell cycle analysis by flow cytometry, HCT116; type: cell-based, human; settings: IC50, 24 h, compared to the control
metric: increase in the cell amount at the sub-G1 phase, HCT116
Include the unit after the number when you answer.

Solved entries (count: 4):
O=C(NCCCl)NCCCCN1c2cc(Cl)ccc2Sc2cc3ccccc3nc21 :: 12 fold
CS(=O)(=O)NCCCCN1c2cc(Cl)ccc2Sc2cc3ccccc3nc21 :: 11 fold
O=C(NCCCl)NCCCN1c2cc(Cl)ccc2Sc2cc3ccccc3nc21 :: 3 fold
CN1CCCCC1CCN1c2cc(Cl)ccc2Sc2cc3ccccc3nc21 (centres unmarked) :: 2 fold

Moving on to the next molecule.
Find the recorded increase in the cell amount at the sub-G1 phase, HCT116 belonging to CN(C)CCCN1c2cc(Cl)ccc2Sc2cc3ccccc3nc21 and report it.
5 fold

---

tested on: S. epidermidis ATCC 12228; experiment: MIC broth microdilution; type: cell-based; settings: Staphylococcus epidermidis, ATCC12228; 19 h, 35 °C; read-out: MIC S. epidermidis ATCC 12228
Listed below: MIC values for each entry.

Would you kindly share the measured MIC for Clc1ccc2c(c1)N(CCN1CCCC1)c1nc3ccccc3cc1S2 [Compound 9] ?
16 µg/mL

What value of measured MIC is listed for CC(=O)NCCCCN1c2cc(Cl)ccc2Sc2cc3ccccc3nc21 [Compound 17] ?
> 256 µg/mL

Give the measured MIC of Cc1ccc(S(=O)(=O)NCCCCN2c3cc(Cl)ccc3Sc3cc4ccccc4nc32)cc1 [Compound 25] .
> 256 µg/mL

For the compound shown here, Clc1ccc2c(c1)N(Cc1cn(CSc3ccccc3)nn1)c1nc3ccccc3cc1S2 [Compound 33] , give the reported MIC.
> 256 µg/mL

Record request: MIC value, item FC(F)(F)c1ccc(-n2cc(CN3c4cc(Cl)ccc4Sc4cc5ccccc5nc43)nn2)cc1 [Compound 28]
> 256 µg/mL

Report MIC for CCOC(=O)NCCCCN1c2cc(Cl)ccc2Sc2cc3ccccc3nc21 [Compound 19] please.
> 256 µg/mL

---

Tested on: HaCaT (immortalized human keratinocytes)
Assay: MTT assay, HaCaT normal cells
Format: cell-based
Settings: Homo sapiens, HaCaT, 72 h, read-out: IC50 HaCaT (Table 3)
Text: The human cell lines, such as A549 (lung cancer), MDA-MB-231 (breast cancer), MiaPaca-2 (pancreatic cancer), PC3 (metastatic prostate cancer), HCT-116 (colon carcinoma), and HaCaT (immortalized keratinocytes), were sourced from the American Type Culture Collection (ATCC) in Rockville, USA. […] Cell absorbance results were incorporated into the formula for calculating the relative MTT level (%), enabling the assessment of cell viability following exposure to the test compounds. […]
metric: IC50 (nM)
Your answer should be a plain number; it is taken to be in nM.

Need IC50 of O=C(NCCCl)NCCCCN1c2cc(Cl)ccc2Sc2cc3ccccc3nc21 [Compound 21] , thanks.
1100

---

system: S. epidermidis ATCC 12228; test: MIC broth microdilution; format: cell-based; conditions: Staphylococcus epidermidis, ATCC12228; 19 h, 35 °C; read-out: MIC S. epidermidis ATCC 12228
Listing of entries alongside the reported MIC.

Reported MIC for Clc1ccc2c(c1)Nc1nc3ccccc3cc1S2 : what is it?
8 µg/mL

So what does the record say about MIC for C#CCN1c2cc(Cl)ccc2Sc2cc3ccccc3nc21 ?
> 256 µg/mL

Given the entry Fc1ccc(Cn2cc(CN3c4cc(Cl)ccc4Sc4cc5ccccc5nc43)nn2)cc1 , report its measured MIC.
> 256 µg/mL

---

tested on: MDA-MB-231 (breast cancer); assay: MTT assay, MDA-MB-231 cells; assay type: cell-based, human; settings: Homo sapiens, MDA-MB-231; MTT, 72 h, MDA-MB231; read-out: IC50 MDA
Measured IC50 values are reported for all entries that follow.

Clc1ccc2c(c1)N(CCN1CCCC1)c1nc3ccccc3cc1S2 [Compound 9] :: 77.1 µM
Cc1ccc(S(=O)(=O)NCCCCN2c3cc(Cl)ccc3Sc3cc4ccccc4nc32)cc1 [Compound 25] :: > 100 µM

Sample Clc1ccc2c(c1)N(Cc1cn(CSc3ccccc3)nn1)c1nc3ccccc3cc1S2 [Compound 33] — what was its IC50?
> 100 µM

Give the measured IC50 of Clc1ccc2c(c1)N(Cc1cn(-c3ccccc3)nn1)c1nc3ccccc3cc1S2 [Compound 27] .
> 100 µM

Please look up its IC50: CS(=O)(=O)NCCCN1c2cc(Cl)ccc2Sc2cc3ccccc3nc21 [Compound 22]
> 100 µM

For CS(=O)(=O)NCCCCN1c2cc(Cl)ccc2Sc2cc3ccccc3nc21 [Compound 23] , what is its reported IC50?
> 100 µM

Name the recorded IC50 for N#Cc1ccc(Cn2cc(CN3c4cc(Cl)ccc4Sc4cc5ccccc5nc43)nn2)cc1 [Compound 32] .
> 100 µM

Give its IC50 value. Item: Fc1ccc(Cn2cc(CN3c4cc(Cl)ccc4Sc4cc5ccccc5nc43)nn2)cc1 [Compound 30]
> 100 µM

Find the recorded IC50 belonging to Cc1ccc(S(=O)(=O)NCCCN2c3cc(Cl)ccc3Sc3cc4ccccc4nc32)cc1 [Compound 24] and report it.
> 100 µM

Requested read-out: IC50. Entry: FC(F)(F)c1ccc(-n2cc(CN3c4cc(Cl)ccc4Sc4cc5ccccc5nc43)nn2)cc1 [Compound 28]
> 100 µM

Endpoint output: IC50 of CC(=O)NCCCN1c2cc(Cl)ccc2Sc2cc3ccccc3nc21 [Compound 16] . Value?
76.6 µM

For the compound CCOC(=O)NCCCN1c2cc(Cl)ccc2Sc2cc3ccccc3nc21 [Compound 18] , what IC50 is on record?
> 100 µM

Which value of IC50 has been reported for Clc1ccc2c(c1)Nc1nc3ccccc3cc1S2 [Compound 5] in the records?
76.5 µM

---

System: MiaPaCa-2 (pancreas cancer)
Assay: MTT assay, MiaPaCa-2 cells
Format: cell-based, human
Details: Homo sapiens, MIA PaCa-2; MTT, 72 h; read-out: IC50 MiaPaCa-2
From the text: The human cell lines, such as A549 (lung cancer), MDA-MB-231 (breast cancer), MiaPaca-2 (pancreatic cancer), PC3 (metastatic prostate cancer), HCT-116 (colon carcinoma), and HaCaT (immortalized keratinocytes), were sourced from the American Type Culture Collection (ATCC) in Rockville, USA. […] Cell absorbance results were incorporated into the formula for calculating the relative MTT level (%), enabling the assessment of cell viability following exposure to the test compounds. […]
The compounds listed here are annotated with their pIC50.
Units for pIC50: none; it is -log10 of a concentration expressed in mol/L.

Guide cases for pIC50, answers given:
COc1cccc2c1C(=O)c1c(O)c3c(c(O)c1C2=O)C[C@@](O)(C(=O)CO)C[C@@H]3O[C@H]1C[C@H](N)[C@H](O)[C@H](C)O1 [DX, doxorubicin, reference compound] :: 6.22
CN(C)CCCN1c2cc(Cl)ccc2Sc2cc3ccccc3nc21 :: 4.40
Clc1ccc2c(c1)N(Cc1cn(-c3ccccc3)nn1)c1nc3ccccc3cc1S2 :: 4.43
Clc1ccc2c(c1)N(CCN1CCCC1)c1nc3ccccc3cc1S2 :: 4.24
Clc1ccc2c(c1)Nc1nc3ccccc3cc1S2 :: 4.95

# query: pIC50 of entry CN1CCCCC1CCN1c2cc(Cl)ccc2Sc2cc3ccccc3nc21 (centres unmarked)
4.61

Can you share its pIC50? I mean this compound: CS(=O)(=O)NCCCCN1c2cc(Cl)ccc2Sc2cc3ccccc3nc21
4.01
